# System: OVCAR-3 ovarian
# Assay comment: NCI tumour cell line growth inhibition, 48 h; in the data active = GI50 below about 0.43 µM; inactive = the rest
Answer with one of the outcomes YES (active), NO (inactive)

Compound	Tested system	Category
COc1ccc2c(c1)c1c(C)c3cnccc3c(C)c1n2CCCN	OVCAR-3 ovarian	YES
Nc1ccccc1NC(=O)c1ccc(CNC(=O)OCc2cccnc2)cc1	OVCAR-3 ovarian	NO
C=C1C(=O)O[C@@H]2[C@@H]3O[C@@H](C[C@@H]13)[C@](C)(O)CC/C=C(\C)CCC[C@H]2C	OVCAR-3 ovarian	NO
COC(=O)C1=C(C(=O)OC)SC(=C(Cl)C(=S)Oc2ccccc2N)S1	OVCAR-3 ovarian	NO
CCn1nc(-c2ccc(C(=O)OC)cc2)nc2c(=O)n(C)c(=O)nc1-2	OVCAR-3 ovarian	YES
COc1cccc(/C=C2\COc3ccc(O)c(O)c3C2=O)c1	OVCAR-3 ovarian	NO
CC(=O)Nc1c(Br)cc2c(c1Br)Cc1cc(Br)ccc1-2	OVCAR-3 ovarian	NO
COc1cc2c(cc1O)CC[C@@H]1[C@@H]2CC[C@]2(C)[C@@H](OCCCN(C)C)CC[C@@H]12	OVCAR-3 ovarian	YES
COc1cc(-c2nn(-c3ccc(NC(=O)NCCNS(=O)(=O)c4ccc(F)cc4)cc3)cc2-c2ccncc2)ccc1Cl	OVCAR-3 ovarian	YES
COc1ccc(C(=O)c2cc(OC)c(OC)c(OC)c2)cc1OC(=O)C(Cl)(Cl)Cl	OVCAR-3 ovarian	YES

Task: Any idea what this test logged for `O=C1OCC(C#Cc2ccccc2)=C1Br` ?
Output: NO

Task: Any idea what this test logged for NC(=O)c1c(Br)n(C2OC(CO)C(O)C2O)c2ncnc(N)c12 (stereo unspecified) ?
Output: NO

Task: Any idea what this test logged for `C#C[C@@]1(O)[C@@H](CO)O[C@@H](n2cc(Br)c3c(N)ncnc32)[C@@H]1O` ?
Output: YES

###

# Test system: CCRF-CEM leukemia
# Assay comment: NCI tumour cell line growth inhibition, 48 h
Items are presented alongside their recorded log10 of TGI.
Form field - Quantity: TGI; Unit: µM; Scale: log10

Record excerpt, results attached:
Molecule	log10 of TGI
O=C(CCN1CCOCC1)c1ccc(Oc2ccc(F)cc2)cc1	1.76
Cn1cc/c(=N\N=c2/ccn(C)c3ccccc23)c2ccccc21	1.39
CCN(CC)CCNC(=O)c1cc2cc(NC(=O)c3cc4cc(N)ccc4[nH]3)ccc2[nH]1	1.59
CCc1ccccc1NC(=O)C1=C(C)NC(C)=C(C(=O)Nc2c(CC)cccc2CC)C1c1ccc2c(c1)OCO2 (stereo not given)	1.71

Task: Give log10 of TGI for this entry on CCRF-CEM leukemia: CN1C[C@@H](c2ccc(Cl)cc2)[C@]2(NC(=S)N(c3ccc(F)c(Cl)c3)C2=O)[C@@]12C(=O)NC1C=CC(Cl)=C[C@H]12 (stereo not given in full)
Output: 1.27

Task: Give log10 of TGI for this entry on CCRF-CEM leukemia: `Cc1ccc(-c2nc3nc(-c4ccc(Br)cc4)nc(N4CCCNCC4)c3o2)cc1`
Output: 0.75

###

# Tested on: SK-MEL-2 melanoma
# Assay comment: NCI tumour cell line growth inhibition, 48 h
Parameter measured: TGI

Compound	TGI
O=C1C(Br)=C(C2=CC(=P(c3ccccc3)(c3ccccc3)c3ccccc3)C=C2)C(=O)C(Br)=C1C1=CC(=P(c2ccccc2)(c2ccccc2)c2ccccc2)C=C1	> 100 µM

// moving on: another record for TGI
Task: Indicate its recorded TGI; the compound in question is `O=C1c2c(c(-c3ccccc3)c(-c3ccccc3)c(-c3ccccc3)c2-c2ccccc2)C(=O)N1c1cccc(Br)c1`
Output: > 100 µM

###

Items are presented alongside their recorded TGI.
# Test system: OVCAR-8 ovarian
# Assay comment: NCI tumour cell line growth inhibition, 48 h

Record excerpt, results attached:
Molecule	Parameter measured	Measured
C/C=C/C1=CN2C(=O)c3cc(OC4OC(C)C(NC)C(C)(O)C4O)c(C)cc3N=C[C@@H]2C1 (stereo partly specified)	TGI	0.087 µM
CCOC(=O)CCSS(=O)(=O)c1ccccc1	TGI	> 100 µM
COC(=O)/C=C/CC(=O)NS(C)(=O)=O	TGI	> 10 µM

Task: Indicate its recorded TGI; the molecule in question is `C=Cc1c(C)c(O)cc2c1-c1ccc(O)c(C)c1CC2`
Output: 39.4 µM

Task: Indicate its recorded TGI; the molecule in question is `COC(=O)Cc1c(-c2[nH]c3ccccc3c2CC(=O)OC)[nH]c2ccccc12`
Output: > 100 µM

Task: Indicate its recorded TGI; the molecule in question is O=C(CC1(O)C(=O)Nc2ccccc21)c1ccc2ccccc2c1 (stereo unspecified)
Output: > 100 µM

Task: Indicate its recorded TGI; the molecule in question is CC1NOC(=O)C1N=Nc1ccccc1Br (stereo unspecified)
Output: 44.9 µM

Task: Indicate its recorded TGI; the molecule in question is O=C(OCCO)C1CC2CC1C1(C2)OCCO1 (stereo unspecified)
Output: > 100 µM

Task: Indicate its recorded TGI; the molecule in question is `COc1cc(-c2nn(-c3ccc(NC(=O)NCCNS(=O)(=O)c4ccc(F)cc4)cc3)cc2-c2ccncc2)ccc1Cl`
Output: 5.38 µM

Task: Indicate its recorded TGI; the molecule in question is `COc1ccc(-c2nc(N3CCCC3)no2)cc1`
Output: > 100 µM

Task: Indicate its recorded TGI; the molecule in question is `Cn1c(=O)c2[nH]c(CSCc3ccccc3)nc2n(C)c1=O`
Output: > 100 µM

###

# Tested on: OVCAR-4 ovarian
# Assay comment: NCI tumour cell line growth inhibition, 48 h
Items are presented alongside their recorded TGI.

Compound	Tested system	Measured
CC(C)(O)[C@@H]1CC[C@](C)(C2[C@@H](O)C[C@@]3(C)C4C[C@H](OC5OCC(O)C(O)C5O)[C@H]5C(C)(C)[C@@H](OC6OCC(O)C(O)C6OC6OCC(O)C(O)C6O)CC[C@@]56C[C@@]46CC[C@]23C)O1 (stereo not given in full)	OVCAR-4 ovarian	> 100 µM
S=c1oc(CCCCCCCCc2nn(CNc3ccccc3)c(=S)o2)nn1CNc1ccccc1	OVCAR-4 ovarian	> 100 µM

Task: Indicate its recorded TGI; the compound in question is `COc1cc(-c2nn(-c3ccc(NC(=O)NCCNS(=O)(=O)c4ccc(F)cc4)cc3)cc2-c2ccncc2)ccc1Cl`
Output: > 100 µM

Task: Indicate its recorded TGI; the compound in question is `Nc1nc(/C=C\c2ccc([N+](=O)[O-])s2)nc(N2CCOCC2)n1`
Output: 15.3 µM

Task: Indicate its recorded TGI; the compound in question is Fc1cccc(F)c1C1SCc2nc3cc4ccccc4cc3n21 (stereo not given)
Output: 36.7 µM

###

Items are presented alongside their recorded TGI.
# System: EKVX NSCLC
# Assay comment: NCI tumour cell line growth inhibition, 48 h

Compound	Measured
O=C(Nc1ccc(F)cc1F)c1cc(F)ccc1O	10.5 µM
O=C(CSc1ncnc2nc[nH]c12)c1ccccc1	> 100 µM
O=c1[nH]ccc2c1ccn2C1CC(O)C(CO)O1 (configuration not stated)	> 100 µM
NC(=S)C1=C(N)Oc2c(c(=O)oc3ccccc23)C1c1ccc(Br)cc1 (configuration not stated)	> 100 µM
OCn1nc2c(C3OCCO3)cc3ccccc3n2c1=S	> 100 µM

Task: Indicate its recorded TGI; the compound in question is `N#CCC(=O)N1CCCOCCC1`
Output: > 100 µM

###

Items are presented alongside their recorded TGI.
# Test system: SW-620 colon
# Assay comment: NCI tumour cell line growth inhibition, 48 h

Task: Indicate its recorded TGI; the compound in question is `C#CCCCCC#Cc1ccccc1C(=O)C=[N+]=[N-]`
Output: > 100 µM

###

# System: SF-295 CNS
# Assay comment: NCI tumour cell line growth inhibition, 48 h
Parameter measured: TGI

Compound	TGI
CC(C)(C)C(=O)OCCNc1nc(-c2ccccc2)nc2ccccc12	22.5 µM

Task: Indicate its recorded TGI; the compound in question is `CC1(C)Cc2c(c3ccccc3c3nc4c(nc23)c2c(c3ccccc34)OC(C)(C)C2)O1`
Output: > 100 µM

Task: Indicate its recorded TGI; the compound in question is `Cc1ccc(Nc2nc3ccccc3c(=O)n2N)cc1`
Output: > 100 µM

Task: Indicate its recorded TGI; the compound in question is COc1cc(COC(=O)N2CSCC2C(=O)O)c([N+](=O)[O-])cc1OC (stereo not given)
Output: > 100 µM

Task: Indicate its recorded TGI; the compound in question is COC(=O)C(=O)C(C(=O)C(=O)Nc1ccc([N+](=O)[O-])cc1[N+](=O)[O-])c1nc2ccc(Cl)cc2[nH]c1=O (stereo not given)
Output: > 100 µM

Task: Indicate its recorded TGI; the compound in question is `COc1cc2c(cc1O)CC[C@@H]1[C@@H]2CC[C@]2(C)[C@@H](OCCCN(C)C)CC[C@@H]12`
Output: 0.208 µM

Task: Indicate its recorded TGI; the compound in question is `Oc1ccc[n+](Cc2ccccc2)c1`
Output: > 100 µM

Task: Indicate its recorded TGI; the compound in question is O=C1CSC(c2cccc(Cl)c2)N1c1ccc(-n2c(-c3ccccc3)nc3ccccc3c2=O)cc1 (stereo not given)
Output: > 100 µM

Task: Indicate its recorded TGI; the compound in question is `CCCNC1=C(C)C(=O)C2=C(C1=O)[C@H](COC(N)=O)[C@]1(OC)[C@@H]3N[C@@H]3CN21`
Output: 39.7 µM

Task: Indicate its recorded TGI; the compound in question is `CCn1c(=O)nc2n(-c3ccccc3)c3ccccc3nc-2c1=O`
Output: > 100 µM

Task: Indicate its recorded TGI; the compound in question is `COc1ccc(-c2nc(N3CCCC3)no2)cc1`
Output: > 100 µM
